These data points were gathered from the supplement of paper PMC10681739.

molecular target: RUNX1 (UniProt Q01196); assay: RUNX1 binding intensity (PBM fluorescence) in presence of ETS1, normalised to RUNX1-only experiment (arbitrary fluorescence units); higher = stronger binding; conditions: RUNX1 concentration 2 nM; ETS1 concentration 25 nM;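 note: Full-length recombinant human ETS1 or RUNX1 bound to double-stranded 36-bp genomic probes on microarrays, detected by protein-specific primary antibody and Alexa488 secondary, spot fluorescence as median of four replicate spots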
Sequence (Q01196 whole entry): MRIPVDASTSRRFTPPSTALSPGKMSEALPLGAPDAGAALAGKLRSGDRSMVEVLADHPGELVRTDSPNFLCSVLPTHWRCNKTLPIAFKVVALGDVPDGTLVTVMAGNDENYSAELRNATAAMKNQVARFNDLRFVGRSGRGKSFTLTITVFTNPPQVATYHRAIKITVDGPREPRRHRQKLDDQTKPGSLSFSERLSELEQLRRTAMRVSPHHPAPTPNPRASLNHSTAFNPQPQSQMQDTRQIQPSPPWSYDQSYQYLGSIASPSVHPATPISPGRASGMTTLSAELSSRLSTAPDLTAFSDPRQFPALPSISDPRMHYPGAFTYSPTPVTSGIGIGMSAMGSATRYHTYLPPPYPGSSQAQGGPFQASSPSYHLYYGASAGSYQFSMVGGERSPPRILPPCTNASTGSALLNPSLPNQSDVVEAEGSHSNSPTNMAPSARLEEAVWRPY
Label class 0 if RUNX1 binding intensity falls below 2000; label class 1 in every other case.

* GCGCCGGTGACGGAAGTGCGGTGTTGAGCGCCGGCG | class 0
* GCTCTGCAGGATGTGGCTGTGACCGCAGTGAGGAGC | class 1
* ACAGACCAGGGGATTTCCTGTGGGTGGAGTCCTCAG | class 0
* GATACCTAGAAGCCAGGAAACCGCGAGCTGCAGTCC | class 0
* TAAGCAGGGAATAGAGGAAGTGGTTTTGTCTCAGGC | class 0
* CTGTTTCCGAGTAAAGTAGGGTGTGTGGGTCACATG | class 0
* GGGGCTGGGAAAGGATGTGGTAAGGGCCAGTCAGTC | class 0
* CTGTTTCCTGCCTTTGCTGTCTGTGACCGCATCAGT | class 1
* TGACATTTCCGGCCCCACCTCGGCCCGCAGCGCCGC | class 1
* GCGCCCGGAAGGAAGGCTGGGGTAGGTTGTGGTTTC | class 0
* ATTAGAGGTAGAGGAAATACCACATGCAAAGGTTTG | class 0
* CCTCGCCCCCTTCCGCACCCACCCCACCGCGCTCCG | class 1
* TAAGTGAATTTCCTGCCCGCCTCCGCCCACAGCGTA | class 0
* AATGCAGCATTTCCTCTCCAGTTCACCACAGGCCCC | class 1
* TAGACTAACAGGGGAGGAAGTGGGTTGCAAGCCGTG | class 0
* CCTGTCCGGAAGTCCTGAGAGGGAATCGCCCGCAAA | class 0
* CTCCATCTGCCCGGAAAACCGCAGCCGCCCCAACCT | class 1
* GACTGGTTTCCTGGTTTTGATGTGGTTTAGAGAAAA | class 1
* AGCCCGCCGGAAACTAGCGTCACCGCGCCAAGGTTC | class 0
* CCCGGAGGACGTCCGGCCTCTGTGAGCCGCAACCTT | class 0
* TTGGAGGCGGAAACAGGCACCGAAAGCGGTGGAAGT | class 0
* TTACAATCATTTCCTCTCTGTGGTTTGGTGACAAAT | class 1
* GAGGACGCGGAAGTCCTTCTTGCGGGGCGGAGCTAG | class 0
* CTGAGCAAAAGGAGGAAGCTGTGGTCTGTGTACCCA | class 0
* GCTGGTATGGCAGGAAGTTTCTCACCACAGTATACT | class 0
